- run description: Veliparib plasma pharmacokinetics, cycle 1
- Type: in vivo, human
- condition parameters: human, plasma, oral, 20 mg, Cmax, Day -2; veliparib dose 20 mg (N=16)
readout type: Cmax (ng/mL)

compound | scale unit | value observed
C[C@]1(c2nc3c(C(N)=O)cccc3[nH]2)CCCN1 [veliparib] | ng/mL | 130

###

- run description: Gemcitabine
- Format: in vivo, human
- condition parameters: human, plasma, intravenous, dFdC Cmax, gemcitabine 750 mg/m^2 (N=3), veliparib 10 mg; mean (standard deviation)

structure | Cmax
Nc1ccn([C@@H]2O[C@H](CO)[C@@H](O)C2(F)F)c(=O)n1 | 11500 ng/mL
